Please provide measured IC50 for the entries that follow.
- measurement_target: GABA-A receptor; anion channel
- method_description: Inhibition of [3H]-Ro- 15-1788 binding to GABA-A benzodiazepine receptor in rat brain membrane

Sample answers from the record:
entry_smiles	recorded_value
O=c1c2cnc3cccc(OCc4ccccc4)c3c2[nH]n1-c1ccccc1	> 1000 µM
O=c1c2cnc3ccc(OCc4ccccc4)cc3c2[nH]n1-c1ccccc1	0.0037 µM
O=c1c2cnc3cccc(O)c3c2[nH]n1-c1ccccc1	0.00074 µM
COc1cccc2ncc3c(=O)n(-c4ccccc4)[nH]c3c12	0.00068 µM
O=c1c2cnc3c(OCc4ccccc4)cccc3c2[nH]n1-c1ccccc1	> 1 µM

The following molecules each have a reported value; give each one's IC50.
1. O=c1c2cnc3ccc(OCc4ccccc4)cc3c2[nH]n1-c1ccc(Cl)cc1
2. O=c1c2cnc3cc(OCc4ccccc4)ccc3c2[nH]n1-c1ccccc1

Data returned:
1: 0.0523 µM; 2: > 1 µM
